Attribution: PubChem BioAssay

- test: viability loss in pontine glioma line – cell-based, JHH-DIPG-1, MIPE4.0, CellTiter-Glo, qHTS, dose response (AID 1347062);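 as to AC50: cells exposed to compound for two days before readout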
- condition-info: JHH-DIPG-1 viability, CellTiter-Glo ATP luminescence
Results filed as inconclusive are left out. The source made the active and inactive calls. The limit is not given here; nearly all actives have AC50 up to about 27 µM.
Outcome codes: Yes for active, No for inactive

smiles-structure | group-label
Cn1cnc2c(F)c(Nc3ccc(Br)cc3Cl)c(C(=O)NOCCO)cc21 | Yes
Cn1cc(/C=C/C(=O)c2cccc(F)c2)cc1/C=C/C(=O)NO | No
COc1ccc(CCN2CCN(CCCc3ccccc3)CC2)cc1OC | No
CCCCCCCCCCCCCCCC(=O)OC[C@@H](NC(=O)C(Cl)Cl)[C@H](O)c1ccc([N+](=O)[O-])cc1 | No
COc1cc(OC)cc(-c2ccc3ncc4ccc(=O)n(-c5ccc(N6CCNCC6)c(C(F)(F)F)c5)c4c3c2)c1 | Yes
CNc1ccc(C(=O)Oc2cc(ON[N+](=O)N(C)C)c([N+](=O)[O-])cc2C#N)cc1 | No
CC(C)(C)COc1ccc(-n2cc(C(=O)O)cn2)cc1C#N | No
O=c1c(O)c(-c2cc(O)c(O)c(O)c2)oc2cc(O)cc(O)c12 | No
OCc1ccc(-c2ccc(-c3ccc(CO)s3)o2)s1 | Yes
CC(=O)OC[C@@H]1O[C@@H](n2ccc(=O)[nH]c2=O)[C@H](OC(C)=O)[C@@H]1OC(C)=O | No
C=CC(=O)Nc1cc2c(Nc3ccc(F)c(Cl)c3)ncnc2cc1C#CC(C)(C)N1CCN(C)CC1 | Yes
COc1cc2c(cc1OC)[C@@H]1Cc3ccc(OC)c(OC)c3CN1CC2 | No
NC(=O)c1cnc(-c2ccc(C3(N)CCC3)cc2)c(-c2ccccc2)c1 | No
COc1cc(C(=O)N2CCC(N3CCN(C)CC3)CC2)ccc1Nc1ncc2c(n1)N(C)c1ccccc1C(=O)N2C | Yes
CN(C(=O)c1ccc(F)cc1C(F)(F)F)C1CCN(c2nnc(-c3ccnn3C)c3ccccc23)CC1 | No
Cc1ccc2c(c1)C(=O)[C@]1(O)CCN(c3ccccc3)C1=N2 | No
COc1ccc(S(=O)(=O)N(C(C)=O)c2ccccc2/C=C/c2cc[n+]([O-])cc2)cc1 | Yes
Cc1cc(Nc2nc(N[C@@H](C)c3ncc(F)cn3)ncc2Cl)n[nH]1 | Yes
NS(=O)(=O)c1cccc2c1C(=O)c1cccc(O)c1C2=O | Yes
OC[C@H](Cc1ccccc1)Nc1nc(Oc2ccc3c(c2)CCC3)nc2c1ncn2Cc1ccc(-c2ccccc2)cc1 | No

====

Recorded inhibition by entry
- test: growth inhibition, single agent and combos, cell-based, chromothripsis tumors, cisplatin or BGB combos (AID 1671450);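 also: cells exposed to compound for four days; 0% = vehicle DMSO and 100% = cell killing by high DMSO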
- condition-info: HDN33 neuroblastoma cells, cisplatin combo, at 5 µM, stronger effect = higher value

smiles-structure | unit-info | inhibition
Nc1ccccc1NC(=O)c1ccc(CNc2nccc(-c3cccnc3)n2)cc1 | % | 100
CS(=O)(=O)c1ccc(-c2nnc(/C=C/c3nnc(-c4ccc(C#N)cc4)o3)n2-c2ccccc2Cl)nc1 | % | 23.5
CC(=O)[C@]1(N)Cc2c(O)c3c(c(O)c2[C@@H](O[C@H]2C[C@H](O)[C@H](O)CO2)C1)C(=O)c1ccccc1C3=O | % | 97.3
Nc1ncnc2c1c(-c1cnc3[nH]ccc3c1)nn2C1CCCC1 | % | 89.8
CCCCc1nc2cc(/C=C/C(=O)NO)ccc2n1CCN(CC)CC | % | 99.9
